target.or.system: FNT of P. vivax (PvFNT) (Plasmodium vivax)
Sequence (A0A1G4GWI6 whole entry): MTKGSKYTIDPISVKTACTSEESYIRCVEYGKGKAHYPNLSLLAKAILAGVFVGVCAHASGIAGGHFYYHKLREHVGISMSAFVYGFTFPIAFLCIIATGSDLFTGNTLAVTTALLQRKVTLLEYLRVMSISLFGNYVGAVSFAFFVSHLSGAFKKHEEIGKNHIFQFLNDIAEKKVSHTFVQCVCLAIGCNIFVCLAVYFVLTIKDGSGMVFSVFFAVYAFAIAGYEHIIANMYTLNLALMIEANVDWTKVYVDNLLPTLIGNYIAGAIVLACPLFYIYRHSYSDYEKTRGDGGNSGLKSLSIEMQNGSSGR
test.details: Inhibition of the FNT of P. vivax
Assay type: cell-based
measured.endpoint: pIC50
Quick note: pIC50 values are minus log10 of concentrations in mol/L.

Asked: State, in one line, measured pIC50 of O=C(C=C(O)C(F)(F)C(F)(F)F)c1cccnc1 [compound [16]]
Given back: 6.64

====

I'd appreciate it if you could supply IC50 values for the items below.
target.or.system: PfFNT wildtype (Plasmodium falciparum)
Sequence (O77389 whole entry): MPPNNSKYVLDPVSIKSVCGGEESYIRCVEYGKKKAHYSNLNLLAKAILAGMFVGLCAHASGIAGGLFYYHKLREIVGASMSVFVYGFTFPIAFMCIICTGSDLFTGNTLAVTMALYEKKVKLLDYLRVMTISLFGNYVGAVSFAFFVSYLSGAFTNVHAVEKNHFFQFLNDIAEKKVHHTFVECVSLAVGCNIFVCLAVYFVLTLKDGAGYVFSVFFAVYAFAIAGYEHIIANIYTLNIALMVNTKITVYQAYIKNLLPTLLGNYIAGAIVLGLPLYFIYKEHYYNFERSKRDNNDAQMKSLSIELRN
test.details: Inhibition of radiolabelled L-lactate uptake in yeast expressing wild-type PfFNT
Protocol: Plasmodium falciparum were kept in culture in 5% 0+ erythrocytes in RPMI 1640 medium containing 0,5% Albumax at 37 °C. […] Medium containing test compounds was exchanged every 24 h. In order to test for the propensity of parasites to develop resistance to a given substance, 3D7 parasites were grown in the presence of 3 x IC50 of a test for 30 days. Thereafter the drug was removed by exchanging the medium, and the day recorded when parasites resurfaced in the culture. […]
Respond with the bare value in nM.

Asked: State, in one line, measured IC50 of O=C(C=C(O)C(F)(F)C(F)(F)F)c1ccccn1 [compound [15]]
Given back: 150

Asked: State, in one line, measured IC50 of O=C(C=C(O)C(F)(F)C(F)(F)F)c1ccc[nH]1 [compound [4], reference compound]
Given back: 160

Asked: State, in one line, measured IC50 of O=C(C=C(O)C(F)(F)CO)c1cccnc1 [compound [21]]
Given back: 5500

Asked: State, in one line, measured IC50 of O=C(C=C(O)C(F)(F)C(F)(F)F)c1cc2ccccc2o1 [compound [7], reference compound]
Given back: 190

Asked: State, in one line, measured IC50 of COc1ccc(C(=O)C=C(O)C(F)(F)C(F)(F)F)cn1 [compound [20]]
Given back: 110

Asked: State, in one line, measured IC50 of O=C(C=C(O)C(F)(F)C(F)(F)F)c1cnccn1 [compound [13]]
Given back: 460

Asked: State, in one line, measured IC50 of O=C(C=C(O)C(F)(F)C(F)(F)F)c1cccnn1 [compound [12]]
Given back: 860

Asked: State, in one line, measured IC50 of O=C(C=C(O)C(F)(F)C(F)(F)F)c1ccncc1 [compound [14]]
Given back: 150

Asked: State, in one line, measured IC50 of O=C(C=C(O)C(F)(F)C(F)(F)F)c1cnc2ccccc2c1 [compound [17]]
Given back: 240

====

I'd appreciate it if you could supply pIC50 values for the items below.
target.or.system: PfFNT G107S (Plasmodium falciparum, UniProt O77389, G107S)
Construct: expressed in transfected cells; host or cells: Saccharomyces cerevisiae W303-1A jen1Δ ady2Δ, plasmid pDR196
Sequence (O77389 whole entry G107S): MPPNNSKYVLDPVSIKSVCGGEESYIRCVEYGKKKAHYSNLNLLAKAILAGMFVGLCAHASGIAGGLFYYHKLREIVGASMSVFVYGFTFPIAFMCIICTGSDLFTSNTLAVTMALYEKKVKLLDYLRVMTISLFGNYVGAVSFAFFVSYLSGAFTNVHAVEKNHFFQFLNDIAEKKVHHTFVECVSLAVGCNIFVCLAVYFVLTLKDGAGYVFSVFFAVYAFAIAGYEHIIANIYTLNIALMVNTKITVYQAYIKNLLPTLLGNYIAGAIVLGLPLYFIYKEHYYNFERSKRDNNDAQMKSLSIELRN
test.details: Inhibition of radiolabelled L-lactate uptake in yeast expressing G107S mutant PfFNT
Format: cell-based
protocol.conditions: G107S mutant FNT; 1 mM lactate, pH 6.8, 30 s uptake; read-out: PfFNT G107S IC50
Quick note: pIC50 values are minus log10 of concentrations in mol/L.

Asked: State, in one line, measured pIC50 of COc1ccc(C(=O)C=C(O)C(F)(F)C(F)(F)F)cc1 [compound [2], reference compound]
Given back: 5.57

Asked: State, in one line, measured pIC50 of Cn1ccc(C(=O)C=C(O)C(F)(F)C(F)(F)F)c1 [compound [6], reference compound]
Given back: 4.85

Asked: State, in one line, measured pIC50 of CC(C)(O)CC(=O)C=C(O)C(F)(F)C(F)(F)F [compound [3], reference compound]
Given back: 3.31

Asked: State, in one line, measured pIC50 of COc1ccc(C(=O)C=C(O)C(F)(F)C(F)(F)F)c(O)c1 [compound [1], reference compound]
Given back: 4.68

Asked: State, in one line, measured pIC50 of O=C(C=C(O)C(F)(F)C(F)(F)F)c1cc[nH]c1 [compound [5], reference compound]
Given back: 4.89

Asked: State, in one line, measured pIC50 of CCCCC(F)(F)C(O)=CC(=O)c1cccnc1 [compound [22]]
Given back: 4.62

Asked: State, in one line, measured pIC50 of O=C(C=C(O)C(F)(F)C(F)(F)F)c1cc2ccccc2o1 [compound [7], reference compound]
Given back: 4.77

Asked: State, in one line, measured pIC50 of O=C(C=C(O)C(F)(F)C(F)(F)F)c1ccc[nH]1 [compound [4], reference compound]
Given back: 4.92
